A collection of compounds and their measured LC50
- Test system: German cockroach 2nd instars (Blattella germanica)
- procedureSummary: Continuous, low-dose ingestion exposure (treated cornmeal)
- Type: in vivo
- condition: 42 days
- Excerpt: German cockroach 2nd instars (Blattella germanica) Continuous, low-dose ingestion exposure (treated cornmeal)
quantity: LC50 (ppm)

compound | testTarget | sign | experimentalResult
CCN(C(=O)Nc1cc(Cl)c(OC(F)(F)C(F)C(F)(F)F)c(Cl)c1)C(=O)c1c(F)cccc1F (stereo not shown) | German cockroach 2nd instars (Blattella germanica) | = | 5.4
O=C(NC(=O)c1c(F)cccc1F)Nc1cc(Cl)c(OC(F)(F)C(F)C(F)(F)F)c(Cl)c1 (stereo not shown) | German cockroach 2nd instars (Blattella germanica) | < | 0.23
O=C(NC(=O)c1c(F)cccc1F)Nc1cc(Cl)c(OC(F)(F)C(F)F)c(Cl)c1 [hexaflumuron, reference compound] | German cockroach 2nd instars (Blattella germanica) | > | 200
CCN(C(=O)NC(=O)c1c(F)cccc1F)c1cc(Cl)c(OC(F)(F)C(F)C(F)(F)F)c(Cl)c1 (stereo not shown) | German cockroach 2nd instars (Blattella germanica) | = | 0.78

Origin of the recorded values: patent US5945453A
